Assay system UniProt P01116; read-out recorded as IC50.
Sequence (P01116 1-188 isoform P01116-2): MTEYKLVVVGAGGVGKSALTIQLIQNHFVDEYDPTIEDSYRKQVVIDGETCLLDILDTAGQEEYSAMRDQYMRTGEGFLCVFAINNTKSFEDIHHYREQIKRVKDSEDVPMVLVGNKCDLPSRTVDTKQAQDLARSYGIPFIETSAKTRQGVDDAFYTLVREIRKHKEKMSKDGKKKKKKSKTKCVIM
Just so you know, I need the unit written after the number.

Example entries begin here.
[
  {
    "compound": "C[C@@H](CN1CCC(F)CC1)Oc1nc(N2C3CCC2CNC3)c2cc(Cl)c(-c3ccc(F)c4sc(N)nc34)c(F)c2n1 [Example E30]",
    "IC50": "173 nM"
  },
  {
    "compound": "C[C@@H](CN1CCC(C#N)CC1)Oc1nc(N2CC3CCC(C2)N3)c2cc(Cl)c(-c3ccc(F)c4sc(N)nc34)c(F)c2n1 [Example E26]",
    "IC50": "140 nM"
  },
  {
    "compound": "CC(CN1CCCCC1)Oc1nc(N2CC3CC(C2)N3)c2cc(Cl)c(-c3ccc(F)c4sc(N)nc34)c(F)c2n1 (stereo not shown) [Example E6]",
    "IC50": "1060 nM"
  },
  {
    "compound": "CC1CCCCN1C[C@H](C)Oc1nc(N2CC3CCC(C2)N3)c2cc(Cl)c(-c3ccc(F)c4sc(N)nc34)c(F)c2n1 (stereo partly shown) [Example E27]",
    "IC50": "57 nM"
  },
  {
    "compound": "CC(CN1CCNCC1)Oc1nc(N2CC3CCC(C2)N3)c2cc(Cl)c(-c3ccc(F)c4sc(N)nc34)c(F)c2n1 (stereo not shown) [Example E13]",
    "IC50": "537 nM"
  },
  {
    "compound": "C[C@@H](CN1CCCCC1)Oc1nc(N2CC3CC(C2)N3)c2cc(Cl)c(-c3ccc(F)c4sc(N)nc34)c(F)c2n1 [Example E12]",
    "IC50": "124 nM"
  },
  {
    "compound": "C[C@@H](CN1CCN(C)CC1)Oc1nc(N2CC3CCC(C2)N3)c2cc(Cl)c(-c3ccc(F)c4sc(N)nc34)c(F)c2n1 [Example E34]",
    "IC50": "1350 nM"
  },
  {
    "compound": "C[C@@H](CN1CCC(F)(F)CC1)Oc1nc(N2CC3CCC(C2)N3)c2cc(Cl)c(-c3ccc(F)c4sc(N)nc34)c(F)c2n1 [Example E17]",
    "IC50": "785 nM"
  }
]

**Query** May I ask what IC50 has been recorded for Nc1nc2c(-c3c(Cl)cc4c(N5CCNCC5)nc(OCCCN5CCN(CCCOCCC(=O)NCCOCCNC(=O)CCCC[C@@H]6SC[C@@H]7NC(=O)N[C@@H]76)CC5)nc4c3F)ccc(F)c2s1 [Example E56] ?
**Result** 370 nM

**Query** Next: Cc1cc(N)nc(-c2c(Cl)cc3c(N4CC5CCC(C4)N5)nc(OC[C@@]45CCCN4C[C@H](F)C5)nc3c2F)c1C(F)(F)F [Example E49]
**Result** 35 nM

**Query** Now this one: CC(CN1C2CCC1CNC2)Oc1nc(N2CC3CCC(C2)N3)c2cc(Cl)c(-c3ccc(F)c4sc(N)nc34)c(F)c2n1 (stereo not shown) [Example E10]
**Result** 387 nM

**Query** Nc1nc2c(-c3c(Cl)cc4c(N5C6CCC5CNC6)nc(OC5CC6CCCCN6C5)nc4c3F)ccc(F)c2s1 (stereo not shown) [Example E39] , same question.
**Result** 8160 nM

**Query** Next record, please: C[C@@H](CN1CCOCC1)Oc1nc(N2CC3CCC(C2)N3)c2cc(Cl)c(-c3ccc(F)c4sc(N)nc34)c(F)c2n1 [Example E29]
**Result** 453 nM
